- Protocol Notes: Cytotoxicity against human CEM cells after 3 days
- Format: cell-based
- Experimental Setup: CEM cells (CCRF-CEM)
Value Type: CC50 at 72 h (µM)
Kindly provide the numeric value in µM only, without the unit symbol.

Quickly give me recorded CC50 at 72 h for Cc1cc(=O)n(Cc2ccccc2)c(=O)n1C1C=CC(OC(=O)c2ccccc2)C1 (racemic)
34

Using known records, supply CC50 at 72 h for Cc1cc(=O)n(C(=O)c2ccccc2)c(=O)n1C1C=CC(OC(=O)c2ccccc2)C1 (racemic)
191

Name the recorded CC50 at 72 h of the molecule listed here: O=C(OC1C=CC(n2ccc(=O)n(Cc3cc(F)cc(F)c3)c2=O)C1)c1ccccc1 (racemic)
32

State its CC50 at 72 h: Cc1cc(C)cc(Cn2c(=O)cc(C)n(C3C=CC(OC(=O)c4ccccc4)C3)c2=O)c1 (racemic)
25

Return the recorded CC50 at 72 h value; entry: Cc1ccc(Cn2c(=O)cc(C)n(C3C=CC(OC(=O)c4ccccc4)C3)c2=O)cc1 (racemic)
20

Specify reported CC50 at 72 h for the molecule shown: Cc1ccc(Cn2c(=O)ccn(C3C=CC(OC(=O)c4ccccc4)C3)c2=O)c(C)c1 (racemic)
31

Please give the documented CC50 at 72 h of Cc1cc(C)cc(Cn2c(=O)ccn(C3C=CC(OC(=O)c4ccccc4)C3)c2=O)c1 (racemic)
40

----------
- Subject Of Test: Human immunodeficiency virus type 1 reverse transcriptase (Human immunodeficiency virus 1, UniProt Q72547)
pIC50: −log10 of the molar value.
Value Type: pIC50

Some compounds with recorded pIC50:
O=C(OC1C=CC(n2ccc(=O)n(C(=O)c3ccccc3)c2=O)C1)c1ccccc1 (racemic)
< 4.00
Cc1cc(C)cc(Cn2c(=O)cc(C)n(C3C=CC(OC(=O)c4ccccc4)C3)c2=O)c1 (racemic)
< 4.30
Cc1cc(=O)n(C(=O)c2ccccc2)c(=O)n1C1C=CC(OC(=O)c2ccccc2)C1 (racemic)
< 4.00

In the following, a different compound is considered.
Could you please provide reported pIC50 for Cc1cc(=O)n(Cc2ccccc2)c(=O)n1C1C=CC(OC(=O)c2ccccc2)C1 (racemic) ? Thanks!
< 4.30

----------
# pIC50 annotations
- Subject Of Test: Human immunodeficiency virus type 1 reverse transcriptase (Human immunodeficiency virus 1, UniProt Q72547, L100I)
- Protocol Notes: Inhibition of HIV1 reverse transcriptase L100I mutant expressed in Escherichia coli BL21 (DE3) using [alpha-32P]dATP after 30 mins by liquid scintillation counting
Note on units: pIC50 is unitless, being -log10 of a concentration expressed in mol/L.

Cc1ccc(Cn2c(=O)ccn(C3C=CC(OC(=O)c4ccccc4)C3)c2=O)cc1 (racemic)
5.62

Find the measured pIC50 of Cc1cc(C)cc(Cn2c(=O)ccn(C3C=CC(OC(=O)c4ccccc4)C3)c2=O)c1 (racemic) and report it.
4.95

Give reported pIC50 value for O=C(OC1C=CC(n2ccc(=O)n(Cc3ccccc3)c2=O)C1)c1ccccc1 (racemic)
5.92

----------
- Subject Of Test: Human immunodeficiency virus type 1 reverse transcriptase (Human immunodeficiency virus 1, UniProt Q72547, Y181C)
- Protocol Notes: Inhibition of HIV1 reverse transcriptase Y181C mutant expressed in Escherichia coli BL21 (DE3) using [alpha-32P]dATP after 30 mins by liquid scintillation counting
Value Type: IC50

Past entries and their recorded results:
O=C(OC1C=CC(n2ccc(=O)n(Cc3ccccc3)c2=O)C1)c1ccccc1 (racemic)
> 50 µM
Cc1cc(C)cc(Cn2c(=O)ccn(C3C=CC(OC(=O)c4ccccc4)C3)c2=O)c1 (racemic)
> 50 µM

Now turn to the next compound.
Report IC50, nothing else, for this compound: Cc1ccc(Cn2c(=O)ccn(C3C=CC(OC(=O)c4ccccc4)C3)c2=O)cc1 (racemic)
> 50 µM

----------
- Subject Of Test: Human immunodeficiency virus type 1 reverse transcriptase (Human immunodeficiency virus 1, UniProt Q72547, V106A)
- Protocol Notes: Inhibition of HIV1 reverse transcriptase V106A mutant expressed in Escherichia coli BL21 (DE3) using [alpha-32P]dATP after 30 mins by liquid scintillation counting
pIC50: −log10 of the molar value.
Value Type: pIC50

Cc1cc(C)cc(Cn2c(=O)ccn(C3C=CC(OC(=O)c4ccccc4)C3)c2=O)c1 (racemic)
< 4.30
Cc1ccc(Cn2c(=O)ccn(C3C=CC(OC(=O)c4ccccc4)C3)c2=O)cc1 (racemic)
< 4.30

Kindly review the next compound as well.
Annotate the compound O=C(OC1C=CC(n2ccc(=O)n(Cc3ccccc3)c2=O)C1)c1ccccc1 (racemic) with its measured pIC50.
< 4.30

----------
- Protocol Notes: Cytotoxicity against human CEM cells after 3 days
- Assay type: cell-based
- Experimental Setup: CEM cells (CCRF-CEM)
The molecules listed here are annotated with their CC50 at 72 h.

O=C(OC1C=CC(n2ccc(=O)n(C(=O)c3ccccc3)c2=O)C1)c1ccccc1 (racemic)
≥ 250 µM

// fetch CC50 at 72 h given entry O=c1ccn(C2C=CC(O)C2)c(=O)n1Cc1ccccc1 (racemic)
> 250 µM

Retrieve CC50 at 72 h measured for Cc1ccnc2c1NC(=O)c1cccnc1N2C1CC1 and print it.
> 25 µM

Tell us which CC50 at 72 h value is on record for CC(C)Nc1cccnc1N1CCN(C(=O)c2cc3cc(NS(C)(=O)=O)ccc3[nH]2)CC1
> 25 µM

Give reported CC50 at 72 h value for Cc1ccc(Cn2c(=O)ccn(C3C=CC(OC(=O)c4ccccc4)C3)c2=O)cc1 (racemic)
> 25 µM

# return recorded CC50 at 72 h for entry O=C(OC1C=CC(n2ccc(=O)n(Cc3ccccc3)c2=O)C1)c1ccccc1 (racemic)
> 25 µM

Input Cc1cc(=O)[nH]c(=O)n1C1C=CC(OC(=O)c2ccccc2)C1 (racemic) , output reported CC50 at 72 h.
> 250 µM

Give the reported CC50 at 72 h for this molecule. O=C(OC1C=CC(n2ccc(=O)[nH]c2=O)C1)c1ccccc1 (racemic)
> 250 µM
